Each recorded value in this set is attributed to PubChem BioAssay AID1963843.

System: 616215-338-R-J1-PDC complex spheroid viability
Test: Anticancer human tumor 616215-338-R-J1-PDC patient-derived colon adenocarcinoma cell line growth inhibition [POLQ]
Conditions: second compound 1 µM; first compound 0.1 µM; hits give low values
property: viability, T/C (%)
Respond numerically; units are % and should not be typed.

Q: Name the recorded viability, T/C of the item C=CCn1c(=O)c2cnc(Nc3ccc(N4CCN(C)CC4)cc3)nc2n1-c1cccc(C(C)(C)O)n1 + COC1C(OC(N)=O)C(O)C(Oc2ccc3c(O)c(NC(=O)c4ccc(O)c(CC=C(C)C)c4)c(=O)oc3c2C)OC1(C)C in your answer.
Ans: 103

Q: Name the recorded viability, T/C of the item CCc1cc2c(N3CCc4c(cc(Cn5ccnc5)cc4-c4cn(C)nc4C(F)(F)F)C3=O)cc(C)nc2c(OC)n1 + Cc1cccc(N(C)C(=O)C2C(O)CCN2c2nc(C)cc(C(F)(F)F)c2C#N)c1 in your answer.
Ans: 102

Q: Name the recorded viability, T/C of the item CCc1cc2c(N3CCc4c(cc(Cn5ccnc5)cc4-c4cn(C)nc4C(F)(F)F)C3=O)cc(C)nc2c(OC)n1 + Nc1ccc(C#CCN(C(=O)Cc2ncc(C(F)(F)F)cc2C(F)(F)F)c2ccc(F)cc2)nn1 in your answer.
Ans: 108

Q: Name the recorded viability, T/C of the item CC1COCCN1c1cc(-c2ccnn2C)c2ccnc(-c3ccn[nH]3)c2n1 (stereo not given) + COC1C(OC(N)=O)C(O)C(Oc2ccc3c(O)c(NC(=O)c4ccc(O)c(CC=C(C)C)c4)c(=O)oc3c2C)OC1(C)C in your answer.
Ans: 84.8

Q: Name the recorded viability, T/C of the item CCc1cc2c(N3CCc4c(cc(Cn5ccnc5)cc4-c4cn(C)nc4C(F)(F)F)C3=O)ccnc2c(OC)n1 + Nc1ccc(C#CCN(C(=O)Cc2ncc(C(F)(F)F)cc2C(F)(F)F)c2ccc(F)cc2)nn1 in your answer.
Ans: 107

---

System: 616215-338-R-J1-PDC complex spheroid viability
Test: Anticancer human tumor 616215-338-R-J1-PDC cell line growth inhibition [POLQ];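 also: spheroids exposed to compounds for one week before readout; percent viability relative to DMSO vehicle wells taken as 100%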
Conditions: second compound 0.1 µM; first compound 10 µM; hits give low values
Label MET when viability, T/C is strictly below 70%; at or above that, label NOT MET.

Q: Dear reviewer, please state whether C=CC(=O)N1CCN(c2nc(=O)n(-c3c(C)ccnc3C(C)C)c3nc(-c4c(O)cccc4F)c(F)cc23)C(C)C1 (stereo not drawn) + Nc1ccc(C#CCN(C(=O)Cc2ncc(C(F)(F)F)cc2C(F)(F)F)c2ccc(F)cc2)nn1 has viability, T/C strictly beneath 70%.
Ans: MET

Q: Dear reviewer, please state whether CC1COCCN1c1cc(-c2ccnn2C)c2ccnc(-c3ccn[nH]3)c2n1 (stereo not drawn) + Nc1ccc(C#CCN(C(=O)Cc2ncc(C(F)(F)F)cc2C(F)(F)F)c2ccc(F)cc2)nn1 has viability, T/C strictly beneath 70%.
Ans: MET

Q: Dear reviewer, please state whether CC(C)n1c(=O)n(C)c2cnc3cc(F)c(-c4ccc(OCCCN5CCCCC5)nc4)cc3c21 + Cc1cccc(N(C)C(=O)C2C(O)CCN2c2nc(C)cc(C(F)(F)F)c2C#N)c1 has viability, T/C strictly beneath 70%.
Ans: NOT MET

Q: Dear reviewer, please state whether C#Cc1c(F)ccc2cc(O)cc(-c3ncc4c(N5CC6CCC(C5)N6)nc(OCC56CCCN5CC(F)C6)nc4c3F)c12 (stereo not drawn) + Cc1cccc(N(C)C(=O)C2C(O)CCN2c2nc(C)cc(C(F)(F)F)c2C#N)c1 has viability, T/C strictly beneath 70%.
Ans: NOT MET

Q: Dear reviewer, please state whether COc1ccc([C@@H](O)c2cc(-c3ncnc4cc(N5CCOCC5)ccc34)c(F)cc2Cl)nn1 + Cc1cccc(N(C)C(=O)C2C(O)CCN2c2nc(C)cc(C(F)(F)F)c2C#N)c1 has viability, T/C strictly beneath 70%.
Ans: NOT MET

Q: Dear reviewer, please state whether CC1COCCN1c1cc(C2(O)CC3CCC(C2)O3)c2cnn(-c3ccn[nH]3)c2n1 (stereo not drawn) + Nc1ccc(C#CCN(C(=O)Cc2ncc(C(F)(F)F)cc2C(F)(F)F)c2ccc(F)cc2)nn1 has viability, T/C strictly beneath 70%.
Ans: MET

Q: Dear reviewer, please state whether CC(C)n1c(=O)n(C)c2cnc3cc(F)c(-c4ccc(OCCCN5CCCCC5)nc4)cc3c21 + Nc1ccc(C#CCN(C(=O)Cc2ncc(C(F)(F)F)cc2C(F)(F)F)c2ccc(F)cc2)nn1 has viability, T/C strictly beneath 70%.
Ans: NOT MET

Q: Dear reviewer, please state whether CC1COCCN1c1cc(C2(O)CC3CCC(C2)O3)c2cnn(-c3ccn[nH]3)c2n1 (stereo not drawn) + Cc1cccc(N(C)C(=O)C2C(O)CCN2c2nc(C)cc(C(F)(F)F)c2C#N)c1 has viability, T/C strictly beneath 70%.
Ans: MET

---

System: 616215-338-R-J1-PDC complex spheroid viability
Assay: Anticancer human tumor 616215-338-R-J1-PDC cell line growth inhibition [POLQ];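 also: spheroids exposed to compounds for one week before readout; percent viability relative to DMSO vehicle wells taken as 100%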
Details: second compound 1 µM; first compound 1 µM; hits give low values
property: viability, T/C (%)
Respond numerically; units are % and should not be typed.

Q: Recall the reported viability, T/C of C#Cc1c(F)ccc2cc(O)cc(-c3ncc4c(N5CC6CCC(C5)N6)nc(OCC56CCCN5CC(F)C6)nc4c3F)c12 (configuration not stated) + COC1C(OC(N)=O)C(O)C(Oc2ccc3c(O)c(NC(=O)c4ccc(O)c(CC=C(C)C)c4)c(=O)oc3c2C)OC1(C)C when tested on 616215-338-R-J1-PDC complex spheroid viability.
Ans: 94.7

Q: Recall the reported viability, T/C of COc1cccc(OCCCN)c1-c1cc(Nc2cnc(C#N)cn2)n[nH]1 + Cc1cccc(N(C)C(=O)C2C(O)CCN2c2nc(C)cc(C(F)(F)F)c2C#N)c1 when tested on 616215-338-R-J1-PDC complex spheroid viability.
Ans: 26.7

Q: Recall the reported viability, T/C of O=C(Nc1ccc(O)c(NS(=O)(=O)c2ccc(F)cc2)c1)c1ccc(-c2ccccc2)cc1 + Cc1cccc(N(C)C(=O)C2C(O)CCN2c2nc(C)cc(C(F)(F)F)c2C#N)c1 when tested on 616215-338-R-J1-PDC complex spheroid viability.
Ans: 96.6

Q: Recall the reported viability, T/C of C#Cc1c(F)ccc2cc(O)cc(-c3ncc4c(N5CC6CCC(C5)N6)nc(OCC56CCCN5CC(F)C6)nc4c3F)c12 (configuration not stated) + Cc1cccc(N(C)C(=O)C2C(O)CCN2c2nc(C)cc(C(F)(F)F)c2C#N)c1 when tested on 616215-338-R-J1-PDC complex spheroid viability.
Ans: 108

Q: Recall the reported viability, T/C of Nc1ccn(C2OC(CO)C(O)C2(F)F)c(=O)n1 (configuration not stated) + Cc1cccc(N(C)C(=O)C2C(O)CCN2c2nc(C)cc(C(F)(F)F)c2C#N)c1 when tested on 616215-338-R-J1-PDC complex spheroid viability.
Ans: 28.8

Q: Recall the reported viability, T/C of C=CC(=O)N1CCN(c2nc(=O)n(-c3c(C)ccnc3C(C)C)c3nc(-c4c(O)cccc4F)c(F)cc23)C(C)C1 (configuration not stated) + Nc1ccc(C#CCN(C(=O)Cc2ncc(C(F)(F)F)cc2C(F)(F)F)c2ccc(F)cc2)nn1 when tested on 616215-338-R-J1-PDC complex spheroid viability.
Ans: 94.6

Q: Recall the reported viability, T/C of C=CCn1c(=O)c2cnc(Nc3ccc(N4CCN(C)CC4)cc3)nc2n1-c1cccc(C(C)(C)O)n1 + Cc1cccc(N(C)C(=O)C2C(O)CCN2c2nc(C)cc(C(F)(F)F)c2C#N)c1 when tested on 616215-338-R-J1-PDC complex spheroid viability.
Ans: 27.8

---

Please provide measured viability, T/C for the entries that follow.
Test system: 616215-338-R-J1-PDC complex spheroid viability
Assay: Anticancer human tumor 616215-338-R-J1-PDC cell line growth inhibition [POLQ];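 also: spheroids exposed to compounds for one week before readout; percent viability relative to DMSO vehicle wells taken as 100%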
Conditions: second compound 0.1 µM; first compound 0.1 µM; hits give low values
Respond numerically; units are % and should not be typed.

Q: Name the recorded viability, T/C of the item COc1cc(C2c3cc4c(cc3C(OC3OC5COC(C)OC5C(O)C3O)C3COC(=O)C23)OCO4)cc(OC)c1O (centres undefined) + Nc1ccc(C#CCN(C(=O)Cc2ncc(C(F)(F)F)cc2C(F)(F)F)c2ccc(F)cc2)nn1 in your answer.
Ans: 92.4

Q: Name the recorded viability, T/C of the item CC1COCCN1c1cc(C2(S(C)(=N)=O)CC2)nc(-c2ccnc3[nH]ccc23)n1 (centres undefined) + COC1C(OC(N)=O)C(O)C(Oc2ccc3c(O)c(NC(=O)c4ccc(O)c(CC=C(C)C)c4)c(=O)oc3c2C)OC1(C)C in your answer.
Ans: 91.7

Q: Name the recorded viability, T/C of the item CC1COCCN1c1cc(C2(O)CC3CCC(C2)O3)c2cnn(-c3ccn[nH]3)c2n1 (centres undefined) + COC1C(OC(N)=O)C(O)C(Oc2ccc3c(O)c(NC(=O)c4ccc(O)c(CC=C(C)C)c4)c(=O)oc3c2C)OC1(C)C in your answer.
Ans: 91.4

Q: Name the recorded viability, T/C of the item COc1cccc2c1C(=O)c1c(O)c3c(c(O)c1C2=O)CC(O)(C(=O)CO)CC3OC1CC(N)C(O)C(C)O1 (centres undefined) + Cc1cccc(N(C)C(=O)C2C(O)CCN2c2nc(C)cc(C(F)(F)F)c2C#N)c1 in your answer.
Ans: 92.1
